Recorded log10(IC50) by entry
Sequence of the target: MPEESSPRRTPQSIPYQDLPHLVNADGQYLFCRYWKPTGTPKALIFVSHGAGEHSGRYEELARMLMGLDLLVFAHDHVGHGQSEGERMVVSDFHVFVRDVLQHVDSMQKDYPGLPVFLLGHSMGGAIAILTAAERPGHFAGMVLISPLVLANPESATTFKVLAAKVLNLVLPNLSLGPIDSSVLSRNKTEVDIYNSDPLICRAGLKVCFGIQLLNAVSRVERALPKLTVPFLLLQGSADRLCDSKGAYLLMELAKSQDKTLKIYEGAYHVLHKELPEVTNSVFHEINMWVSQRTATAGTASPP
Values below are the log10 of the recorded IC50, with nM as the unit.

Example results:
>>> measured_value("CC(C)c1ncn(C2CC3(C2)CN(C(=O)N2CC4(CC(Cc5ccc(F)cc5F)C4)C2)C3)n1")
-0.10
>>> measured_value("O=C(N1C[C@H]2CC(Oc3ccc(F)cc3Cl)C[C@H]2C1)N1CC2(CC(n3cnc(C4CC4)n3)C2)C1 (mixture of isomers)")
0.00

Can you look up the measured log10(IC50) of O=C(N1C[C@H]2C[C@H](Oc3ccc(F)cc3F)C[C@H]2C1)N1CC2(CC(n3cnc(C4CC4)n3)C2)C1 for me?
0.73

Follow-up entry: O=C(N1CC(OCc2ccc(F)cc2Cl)C1)N1CC2(CC(c3ccc(C(F)(F)F)nc3)C2)C1
2.91

Try this molecule too: O=C(N1CC(c2ccc(CC(F)(F)F)cc2)C1)N1CC2(CC(n3cnc(C4CC4)n3)C2)C1
1.39

Repeat for the following molecule: O=C(N1CC2(CC(Oc3ccc(OC(F)(F)F)cc3)C2)C1)N1CC2(CC(n3cnc(C4CC4)n3)C2)C1
0.08

And O=C(N1CC(Oc2ccc(C(F)(F)F)nn2)C1)N1CC2(CC(n3cnc(C4CC4)n3)C2)C1 ?
1.13

Please give the result for O=C(N1CC2(CC(n3cnc(C4CC4)n3)C2)C1)N1CC2(CN(Cc3ccc(C(F)(F)F)nn3)C2)C1 too.
1.66

Could you do the same for O=C(N1CC2(CCN(Cc3ccc(C(F)(F)F)nc3)CC2)C1)N1CC2(CC(n3cnc(C4CC4)n3)C2)C1 , please?
0.70

Here is the next molecule: O=C(N1CCC(CNS(=O)(=O)c2ccc(C(F)(F)F)cc2)CC1)N1CC2(CC(n3cnc(C4CC4)n3)C2)C1
1.21

* * *

Target sequence: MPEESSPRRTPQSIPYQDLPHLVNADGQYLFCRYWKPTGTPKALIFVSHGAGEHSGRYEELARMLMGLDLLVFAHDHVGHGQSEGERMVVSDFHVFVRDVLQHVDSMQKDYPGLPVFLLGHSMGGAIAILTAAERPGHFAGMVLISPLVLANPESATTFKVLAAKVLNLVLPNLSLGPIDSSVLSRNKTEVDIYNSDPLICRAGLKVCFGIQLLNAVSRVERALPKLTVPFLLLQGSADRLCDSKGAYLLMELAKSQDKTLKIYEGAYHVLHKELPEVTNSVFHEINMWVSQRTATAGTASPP
pIC50: −log10 of the molar value.
Decision: pIC50 compared against 8; not below it gives fulfilled, below it gives not fulfilled.

>>> class_label("O=C(N1CC(c2ccc(NC3(C(F)(F)F)CC3)nc2)C1)N1CC2(CC(n3cnc(C4CC4)n3)C2)C1 [Example 477]")
"fulfilled"

Is the recorded value of pIC50 equal to or greater than 8 for this compound? CC(C)c1ccc(N(C)c2ccc(C3CN(C(=O)N4CC5(CC(c6ccc(C(F)(F)F)nc6)C5)C4)C3)cn2)cc1 [Example 534]
not fulfilled

Please answer likewise for O=C(N1CC2(CC(Nc3ccc(C(F)(F)F)nn3)C2)C1)N1CC2(CC(n3cnc(C4CC4)n3)C2)C1 [Example 267]
not fulfilled

For O=C(N1CC(c2ccc(-c3nnc(C4(C(F)(F)F)CC4)[nH]3)cc2)C1)N1CC2(CC(n3cnc(C4CC4)n3)C2)C1 [Example 466] then?
fulfilled

Consider next the compound O=C(N1CC2(CC(Cc3ncc(F)cc3F)C2)C1)N1CC2(CC(n3cnc(C4CC4)n3)C2)C1 [Example 199] in the same way.
fulfilled

Record: COc1ccn(C2CC3(C2)CN(C(=O)c2ccc(-c4noc(C(C)(C)C)n4)cc2)C3)n1 [Example 13]
not fulfilled

Try O=C(N1CC2(CC(Oc3ccc(F)cc3Cl)C2)C1)N1CC2(CC(n3cnc(C4CC4)n3)C2)C1 [Example 45] next.
fulfilled

Same read-out for O=C(N1CC(c2nnc(C3(C(F)(F)F)CC3)o2)C1)N1CC2(CC(n3cnc(C4CC4)n3)C2)C1 [Example 145] ?
not fulfilled

Again, but for Cc1cc(O[C@H]2C[C@@H]3CN(C(=O)N4CC5(CC(n6cnc(C7CC7)n6)C5)C4)C[C@@H]3C2)ccc1F [Example 125]
fulfilled

How about O=C(N1CCC(CNS(=O)(=O)c2ccc(Cl)cc2)CC1)N1CC2(CC(n3cnc(C4CC4)n3)C2)C1 [Example 271] ?
not fulfilled

Again, but for CC1(O)CN(c2ccc(C3CN(C(=O)N4CC5(CC(n6cnc(C(F)(F)F)n6)C5)C4)C3)cn2)C1 [Example 453]
not fulfilled
